Target: hGPR120 (Homo sapiens, UniProt Q5NUL3)
Construct: expressed in transfected cells; host or cells: CHO-K1
Sequence (Q5NUL3 whole entry): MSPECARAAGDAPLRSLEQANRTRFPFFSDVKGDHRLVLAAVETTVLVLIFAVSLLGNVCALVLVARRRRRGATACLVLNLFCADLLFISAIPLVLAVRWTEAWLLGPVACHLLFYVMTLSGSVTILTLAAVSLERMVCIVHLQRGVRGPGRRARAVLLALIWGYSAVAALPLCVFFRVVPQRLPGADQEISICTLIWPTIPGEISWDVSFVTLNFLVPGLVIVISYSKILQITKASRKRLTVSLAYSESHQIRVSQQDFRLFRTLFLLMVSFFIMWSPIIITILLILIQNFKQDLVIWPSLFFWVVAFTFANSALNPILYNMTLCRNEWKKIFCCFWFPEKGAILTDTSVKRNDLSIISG
Assay: Measurement of activity of GPR120 agonist (cell-based calcium fluorescence assay)
Conditions: CHO-K1 cells expressing Ga16 and hGPR120, Calcium 5 dye fluorescence; activity class; read-out: EC50
Description: CHO-K1 cells expressing Ga16 and hGPR120 were dispensed into each well of a 96-well plate (3×10^4 cells/100 μl/well) and then incubated in 5% CO2, 37° C. incubator for 18 hours. […] Fluorescence increased by the serially diluted GPR120 agonists is calculated as a relative percent (%) value based on the fluorescence represented by the treatment of 1% DMSO only. […]
Measured quantity: EC50

Would you please look over these solved cases?
CCCNc1ccccc1-c1ccc(OCCCC(=O)O)cc1 200 to 2000 nM
O=C(O)CCCOc1ccc(-c2cccc(OC3CCCC3)c2)c(F)c1F 200 to 2000 nM

Here is the next item to consider.
In: Please report the measured EC50 for `O=C(O)CCCSc1c(F)cc(-c2cccc(SC3CCC3)n2)cc1F`
Out: < 200 nM
